What half-life at 0.5 μM was measured for each of the following?
- EXPERIMENT_DESCRIPTION: Rat liver microsome stability assay
- Type: in vitro ADME
- EXPERIMENTAL_CONTEXT: rat liver microsomes (male Sprague-Dawley), 0.5 μM test compound, 0.25 mg/mL microsomal protein, pH 7.4, 37° C.; read-out: Stability in rat liver microsomes (t1/2 in minutes)

The recorded half-life at 0.5 μM for Cc1cc(OCC2CC2)c(-c2cn(C)c(=O)c3[nH]ccc23)cc1NS(C)(=O)=O is 72 min

Entry CN(C)c1cccc(Oc2ccc(S(C)(=O)=O)cc2-c2cn(C)c(=O)c3[nH]ccc23)c1 , half-life at 0.5 μM reported as 7 min

// half-life at 0.5 μM value for Cn1cc(-c2cc(S(C)(=O)=O)ccc2Oc2ccc(F)cc2F)c2cc(CNc3ccccc3)[nH]c2c1=O : 21 min

half-life at 0.5 μM in this record for Cn1cc(-c2cc(S(=O)(=O)N3CCc4ccccc43)ccc2OCC2CC2)c2cc[nH]c2c1=O : 2 min

Sure, the documented half-life at 0.5 μM for Cn1cc(-c2cc(S(C)(=O)=O)ccc2Oc2cccnc2)c2cc[nH]c2c1=O is 66 min

Per the record, Cn1cc(-c2cc(C(=O)NCC3CCCO3)ccc2Oc2ccccc2)c2cc[nH]c2c1=O (centres unmarked) has half-life at 0.5 μM of 6 min

So for CN1CCN(C(=O)c2cc3c(-c4cc(S(C)(=O)=O)ccc4Oc4ccc(F)cc4F)cn(C)c(=O)c3[nH]2)CC1 , the logged half-life at 0.5 μM turned out to be 58 min

Per the record, Cn1cc(-c2cc(CS(C)(=O)=O)ccc2NCC2CC2)c2cc[nH]c2c1=O has half-life at 0.5 μM of 36 min

Looking up Cn1cc(-c2cc(S(N)(=O)=O)ccc2Oc2ccccc2)c2cc[nH]c2c1=O , I found its half-life at 0.5 μM recorded as 7 min

Measured half-life at 0.5 μM, CCCS(=O)(=O)Nc1ccc(OC2CCC(F)(F)CC2)c(-c2cn(C)c(=O)c3[nH]ccc23)c1 : 3 min

# half-life at 0.5 μM (compound: CCCS(=O)(=O)Nc1ccc(OC2CCOCC2)c(-c2cn(C)c(=O)c3[nH]ccc23)c1 ) is 22 min

The compound identified as COc1ccccc1Oc1ccc(S(C)(=O)=O)cc1-c1cn(C)c(=O)c2[nH]ccc12 registered its half-life at 0.5 μM at 7 min

Lookup result for Cn1cc(-c2cc(S(C)(=O)=O)ccc2Oc2ccc(F)cc2F)c2cc(CNc3nccs3)[nH]c2c1=O ; measured half-life at 0.5 μM: 22 min

The reported value for CCOC(=O)c1cc2c(-c3cc(N)ccc3Oc3ccccc3)cn(C)c(=O)c2[nH]1 in terms of half-life at 0.5 μM is 2 min

Looking up CNS(=O)(=O)Nc1ccc(OC2CCCOC2)c(-c2cn(C)c(=O)c3[nH]ccc23)c1 (centres unmarked) , I see its half-life at 0.5 μM listed as 33 min

Reported half-life at 0.5 μM for CCS(=O)(=O)Nc1ccc(OCc2ccnn2C)c(-c2cn(C)c(=O)c3[nH]ccc23)c1 was 35 min

The recorded half-life at 0.5 μM for Cn1cc(-c2cc(CS(C)(=O)=O)ccc2Oc2ccc(F)cc2F)c2cc[nH]c2c1=O is 116 min

What the record says about CCS(=O)(=O)Nc1ccc(Oc2ccccc2)c(-c2cn(C)c(=O)c3[nH]ccc23)c1 : half-life at 0.5 μM is 3 min

// field: half-life at 0.5 μM; key: CCS(=O)(=O)N(CCN(C)C)c1ccc(Oc2ccc(F)cc2F)c(-c2cn(C)c(=O)c3[nH]ccc23)c1 ; value = 13 min

Briefly, half-life at 0.5 μM measured for CCOc1ccc(S(C)(=O)=O)cc1-c1cn(C)c(=O)c2[nH]ccc12 : 87 min

Lookup result for Cn1cc(-c2cc(C3=CCN(C(=O)OC(C)(C)C)CC3)ccc2OCC2CC2)c2cc[nH]c2c1=O ; measured half-life at 0.5 μM: 10 min

In plain terms, Cn1cc(-c2cc(C(N)=O)ccc2Oc2ccccc2)c2cc[nH]c2c1=O has a documented half-life at 0.5 μM of 13 min

half-life at 0.5 μM recorded for this compound, Cn1cc(-c2cc(S(C)(=O)=O)ccc2Oc2cccc(Cl)c2)c2cc[nH]c2c1=O , is 8 min

Per the record, Cn1cc(-c2cc(C(=O)NCc3ccc(OC(F)(F)F)cc3)ccc2Oc2ccc(F)cc2F)c2cc[nH]c2c1=O has half-life at 0.5 μM of 21 min

Reported half-life at 0.5 μM for Cn1cc(-c2cc(S(N)(=O)=O)cnc2NCC2CC2)c2cc[nH]c2c1=O was 105 min

For reference, reported half-life at 0.5 μM for Cn1cc(-c2cc(S(C)(=O)=O)ccc2NCC2CC2)c2cc[nH]c2c1=O stands at > 120 min

Just so you know, measured half-life at 0.5 μM for Cn1cc(-c2cc(NS(C)(=O)=O)ccc2OCc2ccccc2)c2cc[nH]c2c1=O came out at 13 min

Record Cn1cc(-c2cc(S(C)(=O)=O)ccc2Oc2ccc(F)c(F)c2)c2cc[nH]c2c1=O . Reported half-life at 0.5 μM: 46 min

The recorded half-life at 0.5 μM for CCS(=O)(=O)c1cnc(Oc2ccc(F)cc2F)c(-c2cn(C)c(=O)c3[nH]ccc23)c1 is > 120 min

Kindly note the recorded half-life at 0.5 μM for CC(C)S(=O)(=O)c1ccc(Oc2ccc(F)cc2F)c(-c2cn(C)c(=O)c3[nH]ccc23)c1 , which is 12 min

half-life at 0.5 μM reported for this compound Cc1ncccc1Oc1ccc(S(C)(=O)=O)cc1-c1cn(C)c(=O)c2[nH]ccc12 : 55 min

Entry under test: Cn1cc(-c2cc(S(C)(=O)=O)ccc2Oc2cccc(C#N)c2)c2cc[nH]c2c1=O . Its half-life at 0.5 μM was > 120 min
